# Tested on: MCF7
# experimental-details: NCI tumour cell line growth inhibition, 48 h
The source made the active and inactive calls. Cut-off read from the data, not from the text of the source: active = GI50 up to about 1.1 µM and inactive = higher.
One label from this list, please: active, inactive

Example entries and their recorded answers appear below.
{"compound": "O=C(NC(Cc1ccc(Br)cc1)C(=O)O)c1ccc(I)cc1 (stereo not drawn)", "target": "MCF7", "assigned-label": "inactive"}
{"compound": "COc1cccc2c1C(=O)c1c(O)c3c(c(O)c1C2=O)CC(O)(C(=O)CO)CC3OC1CC(N2CCOCC2C#N)C(O)C(C)O1 (stereo not drawn)", "target": "MCF7", "assigned-label": "active"}
{"compound": "NC(=O)SCCC(N)C(=O)O (stereo not drawn)", "target": "MCF7", "assigned-label": "inactive"}
{"compound": "O=[N+]([O-])c1cc2ccc1OCc1cccc(n1)COc1ccc(cc1[N+](=O)[O-])/C=N\\CCCCCCCC/N=C\\2", "target": "MCF7", "assigned-label": "inactive"}
{"compound": "O=C1CC(c2cccc(Cl)c2)Nc2ccc(N3CCCC3)cc21 (stereo not drawn)", "target": "MCF7", "assigned-label": "active"}
{"compound": "O=C(C1OC1c1ccc(Cl)cc1)C12CC3CC(CC(C3)C1)C2 (stereo not drawn)", "target": "MCF7", "assigned-label": "inactive"}
{"compound": "COc1cc(C2S/C(=C/c3ccccc3)C(=O)N2c2ccc(NC(C)=O)cc2)cc(OC)c1OC (stereo not drawn)", "target": "MCF7", "assigned-label": "inactive"}
{"compound": "c1ccc(CN2CCC(Nc3ccccc3)(c3nnnn3Cc3ccccc3)CC2)cc1", "target": "MCF7", "assigned-label": "inactive"}
{"compound": "O=C(Nc1ccccc1)N1CCNC1=S", "target": "MCF7", "assigned-label": "inactive"}
{"compound": "Cc1c(-c2ccccc2)c(C#N)c2nnn(-c3ccc([N+](=O)[O-])cc3)c(=O)n12", "target": "MCF7", "assigned-label": "inactive"}

State the result this test recorded for O=c1c2cc(I)ccc2nc(Sc2ccc([N+](=O)[O-])cc2[N+](=O)[O-])n1Cc1ccccc1 .
inactive

Which outcome was entered for the compound CC(C)NC(=O)OCCN=C1c2ccccc2CCc2ccccc21 in this test?
inactive

Could you please tell me the result logged for O=C/C(=C(/Br)I)c1ccccc1 in this assay?
inactive

Answer briefly: the call reported for CC(C)CCCC(C)[C@H]1CC[C@H]2[C@@H]3CC[C@H]4C[C@@H](CCC=C(c5cc(Cl)c(O)c(C(=O)OC(C)C)c5)c5cc(Cl)c(O)c(C(=O)OC(C)C)c5)CC[C@]4(C)[C@H]3CC[C@]12C (stereo partly drawn) in this assay.
inactive

Returns: the outcome recorded for C/C(=N\N)C(CN1CCOCC1)C(c1ccccc1)c1c(O)c2ccccc2oc1=O (stereo not drawn) in this assay.
inactive

Could you kindly confirm the outcome this assay logged for COc1cc(NS(C)(=O)=O)ccc1Nc1cc(C)nc2ccc3[nH]ccc3c12 ?
inactive

====

# Tested on: A498
# experimental-details: NCI tumour cell line growth inhibition, 48 h
Active and inactive are the calls of the source. No stated cut-off is given here; in the data, active = GI50 up to about 1.1 µM and inactive = higher.
For each record, write down the corresponding GI50.

# count of solved cases: 3
{"molecule": "O=c1/c(=C/c2cccc([N+](=O)[O-])c2)sc2nc3ccccc3n12", "GI50": "> 100 µM (inactive)"}
{"molecule": "Cc1ccc(S(=O)(=O)N(CC(O)COc2ccccc2)c2ccc(F)cc2F)cc1 (centres undefined)", "GI50": "15.3 µM (inactive)"}
{"molecule": "CCOC(=O)CCC(NC(=O)c1ccc(Nc2cnc3ccc(C(F)(F)F)cc3n2)cc1)C(=O)OCC (centres undefined)", "GI50": "26.4 µM (inactive)"}

Dear colleague, could you send me GI50 for each of the items below? Thanks.
1. S=C(Nc1ccccc1)Nc1[nH]c(=S)sc1-c1nc2ccccc2[nH]1
2. O=C1CCC2(CC1)SCCCS2
3. O=c1c(-c2ccccc2)nnc2n(Cc3ccccc3)c3ccccc3n12
4. CCOC(=O)/C(=C\NC(C)(C)CO)c1nc2ccccc2[nH]1

1: > 100 µM (inactive); 2: > 100 µM (inactive); 3: > 100 µM (inactive); 4: 54.6 µM (inactive)

For each listed entry, give its GI50.
1. C/C=C/C=C\C(=O)C1c2cccc(O)c2C(=O)c2c(O)cc(C)cc21 (centres undefined)
2. Cn1c(=O)c2nc(CCCc3ccc([N+](=O)[O-])cc3)[nH]c2n(C)c1=O
3. c1ccc(CN2CCC(Nc3ccccc3)(c3nnnn3Cc3ccccc3)CC2)cc1
4. COC(=O)CCC(NC(=S)N/N=C/c1cccs1)C(=O)OC (centres undefined)
5. NS(=O)(=O)c1ccc(C(=O)O)cc1 [CARZENIDE]
6. Cn1ccnc1CCc1c(Cl)cccc1Cl

["2.74 µM (inactive)", "> 100 µM (inactive)", "17.2 µM (inactive)", "> 100 µM (inactive)", "> 100 µM (inactive)", "> 100 µM (inactive)"]
